biological target: Fatty acid synthase (Homo sapiens, UniProt P49327); test: FAS thioesterase domain inhibitors, dose response, biochemical, endpoint fluorescence intensity, uHTS hits (AID 624327); type: functional;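 also: fluorescence from hydrolysis of an O-methyl fluorescein acyl ester substrate by the enzyme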
Sequence (P49327 whole entry, the tested form may be a part): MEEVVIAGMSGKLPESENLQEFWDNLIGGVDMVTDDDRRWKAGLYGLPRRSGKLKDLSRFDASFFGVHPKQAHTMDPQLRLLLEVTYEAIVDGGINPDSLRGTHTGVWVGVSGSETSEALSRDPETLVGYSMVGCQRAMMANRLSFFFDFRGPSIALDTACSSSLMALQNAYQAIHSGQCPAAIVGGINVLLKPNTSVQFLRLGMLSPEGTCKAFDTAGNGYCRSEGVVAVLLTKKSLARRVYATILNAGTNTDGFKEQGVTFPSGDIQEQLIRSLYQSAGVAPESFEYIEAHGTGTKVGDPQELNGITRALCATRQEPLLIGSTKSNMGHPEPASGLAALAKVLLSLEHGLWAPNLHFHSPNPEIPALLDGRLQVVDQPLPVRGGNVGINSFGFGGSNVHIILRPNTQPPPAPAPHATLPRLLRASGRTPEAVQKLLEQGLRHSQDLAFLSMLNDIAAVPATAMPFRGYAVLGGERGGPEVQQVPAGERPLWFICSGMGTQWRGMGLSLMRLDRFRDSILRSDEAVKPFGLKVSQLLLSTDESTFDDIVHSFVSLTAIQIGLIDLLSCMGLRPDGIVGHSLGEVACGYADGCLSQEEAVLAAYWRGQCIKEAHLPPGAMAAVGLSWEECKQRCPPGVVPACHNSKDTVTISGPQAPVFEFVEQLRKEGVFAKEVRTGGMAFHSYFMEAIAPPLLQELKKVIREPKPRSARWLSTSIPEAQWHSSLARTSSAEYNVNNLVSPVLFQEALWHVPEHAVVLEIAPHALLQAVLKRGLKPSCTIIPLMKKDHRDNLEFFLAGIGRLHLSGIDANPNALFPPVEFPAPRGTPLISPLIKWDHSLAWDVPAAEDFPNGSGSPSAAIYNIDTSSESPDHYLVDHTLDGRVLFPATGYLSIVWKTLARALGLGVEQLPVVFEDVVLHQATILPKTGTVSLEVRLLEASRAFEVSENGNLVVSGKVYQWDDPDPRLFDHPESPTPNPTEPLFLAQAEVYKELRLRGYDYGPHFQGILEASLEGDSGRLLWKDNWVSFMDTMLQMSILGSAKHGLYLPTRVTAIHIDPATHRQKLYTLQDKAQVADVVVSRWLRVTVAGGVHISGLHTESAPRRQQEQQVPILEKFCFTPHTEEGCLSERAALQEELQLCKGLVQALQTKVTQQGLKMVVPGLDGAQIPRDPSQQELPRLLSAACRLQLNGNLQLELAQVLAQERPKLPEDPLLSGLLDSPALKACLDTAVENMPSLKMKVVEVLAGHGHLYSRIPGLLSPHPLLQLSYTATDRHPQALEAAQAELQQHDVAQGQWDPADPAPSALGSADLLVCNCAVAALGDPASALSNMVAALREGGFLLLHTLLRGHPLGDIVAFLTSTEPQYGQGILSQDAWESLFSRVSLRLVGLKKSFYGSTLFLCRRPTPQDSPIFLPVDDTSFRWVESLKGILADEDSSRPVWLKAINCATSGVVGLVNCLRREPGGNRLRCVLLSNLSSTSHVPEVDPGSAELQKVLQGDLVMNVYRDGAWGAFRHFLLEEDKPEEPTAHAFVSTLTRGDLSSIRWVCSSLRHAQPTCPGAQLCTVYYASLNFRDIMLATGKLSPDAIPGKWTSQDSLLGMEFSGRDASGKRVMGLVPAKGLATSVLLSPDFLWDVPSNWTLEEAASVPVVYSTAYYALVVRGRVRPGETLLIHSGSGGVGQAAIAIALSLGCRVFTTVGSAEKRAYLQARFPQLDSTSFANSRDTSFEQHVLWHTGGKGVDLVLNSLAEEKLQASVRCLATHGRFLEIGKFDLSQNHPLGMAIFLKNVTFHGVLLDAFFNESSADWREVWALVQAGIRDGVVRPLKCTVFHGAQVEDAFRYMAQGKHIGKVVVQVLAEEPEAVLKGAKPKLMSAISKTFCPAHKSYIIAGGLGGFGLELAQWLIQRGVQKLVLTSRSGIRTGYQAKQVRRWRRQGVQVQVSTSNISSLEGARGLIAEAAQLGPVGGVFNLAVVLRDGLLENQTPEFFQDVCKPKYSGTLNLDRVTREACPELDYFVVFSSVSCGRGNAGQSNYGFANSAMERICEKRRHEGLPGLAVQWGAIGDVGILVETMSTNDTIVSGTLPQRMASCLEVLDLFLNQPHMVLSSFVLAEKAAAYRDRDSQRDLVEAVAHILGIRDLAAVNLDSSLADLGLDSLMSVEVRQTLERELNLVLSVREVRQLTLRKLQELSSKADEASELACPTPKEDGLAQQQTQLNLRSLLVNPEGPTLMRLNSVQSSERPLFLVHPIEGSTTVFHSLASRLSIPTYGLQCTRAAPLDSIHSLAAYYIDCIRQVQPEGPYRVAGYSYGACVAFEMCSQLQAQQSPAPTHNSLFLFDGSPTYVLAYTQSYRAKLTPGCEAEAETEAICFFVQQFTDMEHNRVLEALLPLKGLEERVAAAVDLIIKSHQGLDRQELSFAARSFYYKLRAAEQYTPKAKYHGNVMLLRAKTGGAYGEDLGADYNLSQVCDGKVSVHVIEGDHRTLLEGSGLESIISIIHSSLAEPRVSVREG
Active and inactive are the calls of the source.
QUANTITY: IC50

// sample COc1ccc(Cl)cc1-c1cc(C(=O)NCc2ccc(C(F)(F)F)cc2)[nH]n1 , its IC50 was 15.4 µM (active)

// sample Cc1ccc(S(=O)(=O)N2CCN(C(=O)COC(=O)c3cc([N+](=O)[O-])ccc3NCCO)CC2)c(C)c1 , its IC50 was 6.04 µM (active)

// sample CC(C)(C)c1ccc(/C=N/Nc2ccc(C(=O)O)cc2)cc1 , its IC50 was 7.49 µM (active)

// sample O=C(COC(=O)c1cc([N+](=O)[O-])ccc1N1CCOCC1)Nc1ccc(Cl)cc1 , its IC50 was 2.23 µM (active)

// sample CCOC(=O)CCSc1nc2c(c(C(F)(F)F)c1C#N)CCC2 , its IC50 was 7.74 µM (active)

// sample CC1CCCN(C(=O)COC(=O)c2cc([N+](=O)[O-])ccc2N2CCOCC2)C1 (stereo unspecified) , its IC50 was 2.27 µM (active)

---

test: CRF-BP/CRF-R2 complex antagonists, dose response, cell-based, uHTS hits, 384-well (AID 651639); format: functional, Homo sapiens; conditions: read-out: IC50_Mean
Active and inactive are the calls of the source.
Respond using exactly one of the listed classes: yes (1) (active), no (0) (inactive)

- MOLECULE: "O=C(NC(Cc1ccccc1)c1nc2ccccc2[nH]1)c1ccc(Cl)c([N+](=O)[O-])c1 (configuration not stated)"
  CLASS LABEL: "yes (1)"

Dear colleague, could you share the recorded outcome for COc1cc(N=C(S)NCCC(c2ccccc2)c2ccccc2)c(OC)cc1Cl when you have a moment?
no (0)

Dear colleague, could you share the recorded outcome for Cc1cc([N+](=O)[O-])ccc1NCc1ccccc1 when you have a moment?
yes (1)

Dear colleague, could you share the recorded outcome for Cc1ccc(C)c(N2CCN(S(=O)(=O)c3ccc4c(c3)C(C)(C)C(=O)N4C)CC2)c1 when you have a moment?
yes (1)

Dear colleague, could you share the recorded outcome for COc1ccc(CN2CCCCC2C)cc1C (configuration not stated) when you have a moment?
yes (1)

Dear colleague, could you share the recorded outcome for N#CN=C(Nc1cccc(F)c1)SCc1ccccc1 when you have a moment?
no (0)

Dear colleague, could you share the recorded outcome for Cc1ccc(/C=N/n2c(S)nnc2-c2cccc(Cl)c2)o1 when you have a moment?
no (0)

---

Molecular target: Apoptotic protease-activating factor 1 (Homo sapiens);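 also: caspase-3 cleavage of fluorogenic Rh110 DEVD substrate downstream of apoptosome activation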
Sequence (O14727 whole entry): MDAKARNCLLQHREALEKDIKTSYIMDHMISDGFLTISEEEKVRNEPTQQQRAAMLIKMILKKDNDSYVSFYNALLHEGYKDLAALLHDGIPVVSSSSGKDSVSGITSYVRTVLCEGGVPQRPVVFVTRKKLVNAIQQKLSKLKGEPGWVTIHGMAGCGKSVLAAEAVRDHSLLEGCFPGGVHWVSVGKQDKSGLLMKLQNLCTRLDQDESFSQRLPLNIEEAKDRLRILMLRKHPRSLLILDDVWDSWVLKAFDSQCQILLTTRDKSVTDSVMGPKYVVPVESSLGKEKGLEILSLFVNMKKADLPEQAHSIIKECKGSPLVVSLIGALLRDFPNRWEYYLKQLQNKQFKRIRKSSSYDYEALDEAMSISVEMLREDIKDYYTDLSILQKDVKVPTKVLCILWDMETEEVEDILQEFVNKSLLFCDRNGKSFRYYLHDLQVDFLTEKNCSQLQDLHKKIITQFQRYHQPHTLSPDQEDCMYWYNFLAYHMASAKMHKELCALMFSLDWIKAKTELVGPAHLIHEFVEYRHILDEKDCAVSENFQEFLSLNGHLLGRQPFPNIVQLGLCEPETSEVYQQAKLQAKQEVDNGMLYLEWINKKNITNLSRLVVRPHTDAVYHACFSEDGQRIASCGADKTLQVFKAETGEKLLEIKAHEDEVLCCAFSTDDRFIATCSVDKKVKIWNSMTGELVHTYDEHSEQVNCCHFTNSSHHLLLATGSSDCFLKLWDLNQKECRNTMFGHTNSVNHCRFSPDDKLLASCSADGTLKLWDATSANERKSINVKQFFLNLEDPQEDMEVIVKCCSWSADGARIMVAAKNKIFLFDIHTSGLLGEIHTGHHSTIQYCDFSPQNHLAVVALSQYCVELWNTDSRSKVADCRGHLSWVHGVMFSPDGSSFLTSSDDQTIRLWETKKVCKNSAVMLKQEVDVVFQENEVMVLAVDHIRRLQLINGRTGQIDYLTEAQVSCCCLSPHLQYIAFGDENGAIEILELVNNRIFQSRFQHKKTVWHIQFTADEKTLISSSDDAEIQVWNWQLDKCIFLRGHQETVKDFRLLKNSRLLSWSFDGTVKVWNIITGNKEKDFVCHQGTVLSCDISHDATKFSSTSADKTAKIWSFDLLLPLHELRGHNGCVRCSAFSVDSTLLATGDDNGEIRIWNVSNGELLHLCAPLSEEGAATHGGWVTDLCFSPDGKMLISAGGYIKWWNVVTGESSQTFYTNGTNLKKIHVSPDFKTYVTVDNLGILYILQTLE
Assay: SAR analysis of small molecule Activators of Apaf-1 in a Fluorescent assay.
Assay type: functional
Details: read-out: EC50_Mean
Calls of active or inactive are those of the source.
QUANTITY: EC50

Consider the following illustrative entries.
- COMPOUND: "CC(=O)Nc1ccc(C(C)C)cc1"
  EC50: "> 100 µM (inactive)"
- COMPOUND: "COc1ccc(S(=O)(=O)N2CCCCC2)cc1NC(=O)CCS(=O)(=O)c1ccc(C)cc1"
  EC50: "> 100 µM (inactive)"
- COMPOUND: "O=C(c1ccco1)N1CCN(C(=O)C2CC(c3ccc(F)cc3)=NO2)CC1 (centres undefined)"
  EC50: "> 100 µM (inactive)"

# lookup: CCOc1ccccc1NC(=O)CCS(=O)(=O)c1cc2c(cc1Br)CCN2C(=O)C1CC1 on Apoptotic protease-activating factor 1 (Homo sapiens), EC50 = > 100 µM (inactive)
